The reported measurements were obtained from patent US20250171431A1.

- experimental_system: UniProt:P08069
- measurement_protocol: Example B-1: IGF-1R Assay (PC3 cells, IGF1 stimulation, AlphaLISA)
- Type: cell-based
- test_conditions: 200 ng/mL IGF1 stimulation, read-out: Biological Activity against IGF-1R IC50
Give IC50 for every item shown.

**Query** Supply IC50 measured with UniProt:P08069 for COc1cc(Nc2nccc(Nc3cnc4ccc(Cl)nc4c3)n2)ccc1O[C@H]1C[C@@H](N(C)C)C1 [Compound 10] .
**Result** ≤ 500 nM

**Query** Supply IC50 measured with UniProt:P08069 for COc1cc(Nc2nccc(Nc3cnc4ccc(C(F)(F)F)cc4c3)n2)ccc1O[C@H]1C[C@H](N(C)C)C1 [Compound 334] .
**Result** ≤ 500 nM

**Query** Supply IC50 measured with UniProt:P08069 for COc1nc(N2CCN(C)CC2)ccc1Nc1nccc(Nc2cnc3cc(F)c(F)cc3c2)n1 [Compound 472] .
**Result** ≤ 500 nM

**Query** Supply IC50 measured with UniProt:P08069 for COc1cc(Nc2nccc(Nc3cnc4c(c3)CCOC4)n2)ccc1OCCCN1CCCCC1 [Compound 54] .
**Result** ≤ 500 nM

**Query** Supply IC50 measured with UniProt:P08069 for COc1cc(Nc2nccc(Nc3cnc(O[C@H]4CCCC[C@H]4O)c(F)c3)n2)ccc1O[C@H]1C[C@@H](N(C)C)C1 [Compound 180] .
**Result** ≤ 500 nM

**Query** Supply IC50 measured with UniProt:P08069 for COc1cc(Nc2nccc(Nc3cc4cccc(F)c4[nH]c3=O)n2)cnc1N1CCC(O)(C(F)(F)F)CC1 [Compound 228] .
**Result** ≤ 500 nM

**Query** Supply IC50 measured with UniProt:P08069 for Clc1cc(Nc2nccc(Nc3cnc4ccccc4c3)n2)ccc1N1CCOCC1 [Compound 459] .
**Result** ≤ 500 nM

**Query** Supply IC50 measured with UniProt:P08069 for COc1nc(C2CCN(CC#N)CC2)ccc1Nc1nccc(Nc2cc3cccc(F)c3[nH]c2=O)n1 [Compound 212] .
**Result** ≤ 500 nM

* * *

Give IC50 for every item shown.
- experimental_system: IGF-1R (Homo sapiens (Human), UniProt P08069)
- Sequence (P08069 31-1367): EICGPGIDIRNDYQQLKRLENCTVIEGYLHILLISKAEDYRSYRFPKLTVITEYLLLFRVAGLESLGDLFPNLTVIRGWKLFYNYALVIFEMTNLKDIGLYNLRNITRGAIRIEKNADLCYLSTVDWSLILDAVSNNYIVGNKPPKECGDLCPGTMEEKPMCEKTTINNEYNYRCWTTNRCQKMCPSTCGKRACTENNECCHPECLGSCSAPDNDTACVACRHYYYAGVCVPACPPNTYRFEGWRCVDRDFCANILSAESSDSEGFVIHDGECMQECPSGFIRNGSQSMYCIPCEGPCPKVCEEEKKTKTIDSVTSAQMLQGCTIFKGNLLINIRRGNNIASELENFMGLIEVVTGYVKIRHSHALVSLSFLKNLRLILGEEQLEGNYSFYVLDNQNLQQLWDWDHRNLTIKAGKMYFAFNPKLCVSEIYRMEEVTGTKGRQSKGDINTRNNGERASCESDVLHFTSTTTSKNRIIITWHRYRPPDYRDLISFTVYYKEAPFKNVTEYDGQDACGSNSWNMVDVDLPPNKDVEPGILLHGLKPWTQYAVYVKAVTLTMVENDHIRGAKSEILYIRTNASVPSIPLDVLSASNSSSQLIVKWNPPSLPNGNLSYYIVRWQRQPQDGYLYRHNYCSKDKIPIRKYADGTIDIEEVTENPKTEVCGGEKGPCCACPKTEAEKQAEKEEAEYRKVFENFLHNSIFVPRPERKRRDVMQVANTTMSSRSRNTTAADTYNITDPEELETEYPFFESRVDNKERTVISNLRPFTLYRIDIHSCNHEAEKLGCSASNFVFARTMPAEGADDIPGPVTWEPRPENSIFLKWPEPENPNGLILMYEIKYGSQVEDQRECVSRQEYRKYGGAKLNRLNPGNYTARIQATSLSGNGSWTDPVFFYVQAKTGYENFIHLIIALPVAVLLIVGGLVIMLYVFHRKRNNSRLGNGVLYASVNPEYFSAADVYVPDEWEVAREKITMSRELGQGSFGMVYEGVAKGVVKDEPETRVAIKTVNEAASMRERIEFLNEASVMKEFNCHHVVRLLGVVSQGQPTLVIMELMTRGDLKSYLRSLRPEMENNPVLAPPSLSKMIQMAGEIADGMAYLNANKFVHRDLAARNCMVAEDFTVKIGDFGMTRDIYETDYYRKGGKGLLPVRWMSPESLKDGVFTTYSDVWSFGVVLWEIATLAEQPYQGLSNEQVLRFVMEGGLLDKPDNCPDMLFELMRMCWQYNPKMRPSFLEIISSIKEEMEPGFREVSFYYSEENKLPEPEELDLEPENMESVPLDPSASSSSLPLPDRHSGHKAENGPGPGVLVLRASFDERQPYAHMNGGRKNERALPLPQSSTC
- measurement_protocol: Example B-1: IGF-1R Assay (PC3 cells, IGF1 stimulation, AlphaLISA)
- Type: cell-based
- test_conditions: 200 ng/mL IGF1 stimulation, read-out: Biological Activity against IGF-1R IC50

**Query** Report measured IC50; entry is COc1cc(Nc2nccc(Nc3cnc4c(Cl)cccc4c3)n2)ccc1O[C@H]1CC[C@@H](N2CCOCC2)CC1
**Result** ≤ 500 nM

**Query** Report measured IC50; entry is COc1cc(Nc2nccc(Nc3ncc4ccc(Br)cc4n3)n2)ccc1O[C@H]1C[C@@H](N(C)C)C1
**Result** 2000 to 10000 nM

**Query** Report measured IC50; entry is COc1cc(Nc2nccc(Nc3cc(Cl)c4ncccc4c3)n2)ccc1OCCCN1CCCCC1
**Result** ≤ 500 nM

**Query** Report measured IC50; entry is COc1cc(Nc2nccc(Nc3ccc4ccc(Cl)nc4n3)n2)ccc1O[C@H]1C[C@@H](N(C)C)C1
**Result** ≤ 500 nM

**Query** Report measured IC50; entry is COc1cc(Nc2nccc(Nc3cnc4c(c3)OC(C)CO4)n2)ccc1OCCCN1CCCCC1 (stereo not drawn)
**Result** ≤ 500 nM

**Query** Report measured IC50; entry is COc1cc(Nc2nccc(Nc3cnc4c(c3)CN(C)CC4)n2)ccc1OCCCN1CCCCC1
**Result** 2000 to 10000 nM

**Query** Report measured IC50; entry is COc1cc(Nc2nccc(Nc3cnc4ccc(C(F)F)cc4c3)n2)cnc1O[C@H]1C[C@@H](N(C)C)C1
**Result** ≤ 500 nM

**Query** Report measured IC50; entry is COc1cc(Nc2nccc(Nc3ccc4c(O)nccc4c3)n2)ccc1O[C@H]1C[C@@H](N(C)C)C1
**Result** ≤ 500 nM

**Query** Report measured IC50; entry is c1ccc2ncc(Nc3ccnc(Nc4ccc(OCCCN5CCCCC5)c(OCC5CCCO5)c4)n3)cc2c1 (stereo not drawn)
**Result** ≤ 500 nM

**Query** Report measured IC50; entry is COc1cc(Nc2nccc(Nc3cnc4ccccc4c3)n2)ccc1N1CCC(N2CCN(C)CC2)CC1
**Result** ≤ 500 nM

**Query** Report measured IC50; entry is COc1cc(Nc2nccc(Nc3cnc4ccc(C)cc4c3)n2)ccc1OCCCN1CCCCC1
**Result** ≤ 500 nM

**Query** Report measured IC50; entry is COc1cc(Nc2nccc(Nc3cc4cc(F)c(F)cc4[nH]c3=O)n2)ccc1O[C@H]1C[C@@H](N(C)C)C1
**Result** ≤ 500 nM

**Query** Report measured IC50; entry is COc1cc(N2CCN(CC#N)CC2)ncc1Nc1ncc(F)c(Nc2cc3ccccc3nc2C(N)=O)n1
**Result** ≤ 500 nM

**Query** Report measured IC50; entry is CN(C)CC(=O)N1CCc2cc(Nc3nccc(Nc4cc5cccc(F)c5[nH]c4=O)n3)ccc21
**Result** ≤ 500 nM

**Query** Report measured IC50; entry is CN(C)CC(=O)N1CCOc2ccc(Nc3nccc(Nc4cnc5cc(F)c(F)cc5c4)n3)cc21
**Result** ≤ 500 nM

**Query** Report measured IC50; entry is C[C@H]1COc2ncc(Nc3ccnc(Nc4ccc(OCCCN5CCOCC5)cc4)n3)cc2O1
**Result** 500 to 2000 nM

**Query** Report measured IC50; entry is COc1cc(Nc2nccc(Nc3cc4ccccc4[nH]c3=O)n2)ccc1O[C@H]1C[C@H](N(C)C)C1
**Result** ≤ 500 nM

**Query** Report measured IC50; entry is COc1cc(Nc2nccc(Nc3cnc4c(c3)CCCO4)n2)ccc1O[C@H]1C[C@@H](N(C)C)C1
**Result** ≤ 500 nM

**Query** Report measured IC50; entry is COc1cc(Nc2nccc(Nc3cnc4c(c3)CSCC4)n2)ccc1OCCCN1CCCCC1
**Result** ≤ 500 nM

**Query** Report measured IC50; entry is COc1ccc2cc(Nc3ccnc(Nc4ccc(O[C@@H]5C[C@H]6COC[C@@H](C5)N6C)cc4)n3)cnc2c1
**Result** 500 to 2000 nM

**Query** Report measured IC50; entry is COc1cc(Nc2nccc(Nc3cnc4c(c3)OCC(C)(C)O4)n2)cnc1O[C@H]1C[C@@H](N(C)C)C1
**Result** ≤ 500 nM

**Query** Report measured IC50; entry is COc1cc(Nc2ncc(F)c(Nc3cc4ccccc4nc3C(N)=O)n2)cnc1N1CCC(C)(O)CC1
**Result** ≤ 500 nM

**Query** Report measured IC50; entry is COc1cc(Nc2nccc(Nc3cnc4ccc(OC(F)(F)F)cc4c3)n2)ccc1O[C@H]1C[C@@H](N(C)C)C1
**Result** ≤ 500 nM

**Query** Report measured IC50; entry is COc1cc(Nc2nccc(Nc3cnc4ccccc4c3)n2)cnc1O[C@H]1C[C@@H](N(C)C)C1
**Result** ≤ 500 nM

**Query** Report measured IC50; entry is COc1cc(Nc2nccc(Nc3ccc4nc(C)ccc4c3)n2)ccc1OCCCN1CCCCC1
**Result** ≤ 500 nM

**Query** Report measured IC50; entry is Clc1ccc2cc(Nc3ccnc(Nc4ccc(OCCCN5CCOCC5)cc4)n3)cnc2c1
**Result** 2000 to 10000 nM

**Query** Report measured IC50; entry is COc1cc(Nc2nccc(Nc3cnc4ccc(C5CC5)cc4c3)n2)ccc1OCCCN1CCOCC1
**Result** ≤ 500 nM

**Query** Report measured IC50; entry is COc1cc(Nc2nccc(Nc3cc4cccc(F)c4[nH]c3=O)n2)cnc1N1CCOCC1
**Result** ≤ 500 nM

**Query** Report measured IC50; entry is COc1cc(Nc2nccc(Nc3cnc4c(c3)O[C@H]3CCCC[C@@H]3O4)n2)ccc1O[C@H]1C[C@@H](N(C)C)C1
**Result** ≤ 500 nM

**Query** Report measured IC50; entry is COc1cc(Nc2nccc(Nc3cc4cccc(F)c4[nH]c3=O)n2)cnc1N1CCN(C)C(C(F)(F)F)C1 (stereo not drawn)
**Result** 500 to 2000 nM

* * *

- experimental_system: UniProt P08069
- measurement_protocol: Example B-1: IGF-1R Assay (PC3 cells, IGF1 stimulation, AlphaLISA)
- Type: cell-based
- test_conditions: 200 ng/mL IGF1 stimulation, read-out: Biological Activity against IGF-1R IC50
Give IC50 for every item shown.

**Query** Report measured IC50; entry is COc1cc(Nc2nccc(Nc3cnc4ccccc4c3)n2)ccc1O[C@H]1CC[C@@H](N(C)C)CC1 [Compound 331]
**Result** ≤ 0.5 µM

**Query** Report measured IC50; entry is COc1cc(Nc2nccc(Nc3cnc4cc(F)c(F)cc4c3)n2)cnc1N1CCNC(=O)C1 [Compound 471]
**Result** > 10 µM

**Query** Report measured IC50; entry is CN(C)[C@H]1C[C@H](Oc2ccc(Nc3nccc(Nc4cnc5ccccc5c4)n3)cc2C(F)(F)F)C1 [Compound 36]
**Result** ≤ 0.5 µM

**Query** Report measured IC50; entry is COc1cc(Nc2nccc(Nc3cnc4c(c3)CCCO4)n2)ccc1OCCCN1CCCCC1 [Compound 375]
**Result** ≤ 0.5 µM
